- test_description: modulators of MEP2-GFP levels in yeast, confirmation, S. cerevisiae, flow cytometry GFP, cherry picks (AID 2272);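 note: ratio of well signal to plate DMSO mean so 100% equals DMSO level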
- measurement_conditions: S. cerevisiae MEP2-GFP strain, 3 h, at 10 µM, stronger effect = higher value
The source made the active and inactive calls.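 Rule for the calls: active = GFP response above 150% of the DMSO control; inconclusive = Fewer than 70 cells counted for a yeast strain; inactive = the rest.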
GFP response vs DMSO listing for selected compounds.

q: Identify measured GFP response vs DMSO associated with CCCCC(=O)NNC(=S)NC(=O)c1ccc(C)cc1
a: 134% (inactive)

q: Identify measured GFP response vs DMSO associated with COc1cccc2c1Oc1ncccc1N(C(=O)CCC(=O)NCc1ccc(C)cc1)C2
a: 99% (inactive)

q: Identify measured GFP response vs DMSO associated with COc1ccc(NC(=O)/C(Cl)=C(/Cl)S(=O)Cc2ccccc2)cn1 (stereo not given)
a: 118% (inactive)

q: Identify measured GFP response vs DMSO associated with O=C1C(Cl)=C(N2CCN(Cc3ccccc3)CC2)C(=O)N1Cc1ccccc1
a: 94.7% (inactive)

# ---- query compound ----
q: Identify measured GFP response vs DMSO associated with CCOc1cccc(C(=O)Nc2ccc(NC(=O)c3cc4ccccc4o3)c(OC)c2)c1
a: 98.3% (inactive)

====

- test_description: LAP4-GFP expression modulators in yeast, confirmation, cell-based, cherry picks, flow cytometry, mother/daughter gates (AID 2271);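 note: ratio of sample to DMSO plate mean so 100% equals DMSO level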
- measurement_conditions: S. cerevisiae LAP4-GFP strain, 3 h, measured here: mother cell gate response, at 10 µM, stronger effect = higher value, 100 means same as DMSO control
reported_endpoint: GFP response relative to DMSO (%)
Give just the numeric value; % need not be written.

q: Identify measured GFP response relative to DMSO associated with O=C(NN1C(=O)/C(=C\c2ccc(O)c([N+](=O)[O-])c2)SC1=S)c1ccccc1Cl
a: 129

q: Identify measured GFP response relative to DMSO associated with CCCn1nc(C(=O)OCC(=O)c2ccc3c(c2)NC(=O)CO3)c2ccccc2c1=O
a: 98.4

q: Identify measured GFP response relative to DMSO associated with CCOC(=O)c1cnn(-c2cc(C)nc3c(-c4ccccc4)cnn23)c1N
a: 94.4

q: Identify measured GFP response relative to DMSO associated with CCOc1ccc(N/N=C(/C#N)C(N)=O)cc1
a: 250

q: Identify measured GFP response relative to DMSO associated with COc1ccc(/C=C/C(=O)NC(=S)NNC(=O)c2cnccn2)cc1
a: 162

====

- test_description: LAP4-GFP expression modulators in yeast, confirmation, cell-based, cherry picks, flow cytometry, mother/daughter gates (AID 2271);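 note: ratio of sample to DMSO plate mean so 100% equals DMSO level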
- measurement_conditions: S. cerevisiae LAP4-GFP strain, 3 h, measured here: mother cell gate response, at 10 µM, stronger effect = higher value, 100 means same as DMSO control
GFP response relative to DMSO listing for selected molecules.
Give just the numeric value; % need not be written.

Examples from the recorded data:
q: Identify measured GFP response relative to DMSO associated with CCc1noc(C)c1C(=O)Nc1nc(-c2ccc(Cl)cc2Cl)c(C)s1
a: 97.5

q: Identify measured GFP response relative to DMSO associated with COc1ccc(CNC(=O)c2nc(S(=O)(=O)Cc3ccccc3)ncc2Cl)cc1
a: 108

q: Identify measured GFP response relative to DMSO associated with C/C(=N\NC(=O)c1ccc(Cl)cc1)c1cccc(NC(=O)C(C)C)c1
a: 97.2

q: Identify measured GFP response relative to DMSO associated with COc1cc(/C=N/Nc2nc(C)cc(=O)[nH]2)ccc1O
a: 86.7

q: Identify measured GFP response relative to DMSO associated with CCN(CC)CCCN(C(=O)c1ccc(Br)cc1)c1nc(-c2ccc(OC)cc2)cs1
a: 94.4

Next:
q: Identify measured GFP response relative to DMSO associated with O=C(/C=C/Sc1ncn[nH]1)c1ccc(Cl)cc1
a: 214

q: Identify measured GFP response relative to DMSO associated with O=C(c1ccccc1Br)N1CCN(c2ccccc2)CC1
a: 97.2

q: Identify measured GFP response relative to DMSO associated with CC(=O)OCC(=O)[C@@]1(O)CC[C@H]2[C@@H]3CCC4=CC(=O)CC[C@]4(C)[C@H]3C(=O)C[C@@]21C
a: 102

====

- test_description: modulators of MEP2-GFP levels in yeast, confirmation, S. cerevisiae, flow cytometry GFP, cherry picks (AID 2272);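 note: ratio of well signal to plate DMSO mean so 100% equals DMSO level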
- measurement_conditions: S. cerevisiae MEP2-GFP strain, 3 h, at 10 µM, stronger effect = higher value
GFP response vs DMSO listing for selected compounds.
Give just the numeric value; % need not be written.

Examples from the recorded data:
q: Identify measured GFP response vs DMSO associated with COCc1nnc(NC(=O)c2ccc(S(=O)(=O)N3CCCCCC3)cc2)o1
a: 107

q: Identify measured GFP response vs DMSO associated with COc1ccc(C(=O)c2no[n+]([O-])c2C(=O)c2ccc(OC)cc2)cc1
a: 94.1

q: Identify measured GFP response vs DMSO associated with COc1ccc(C2CC(c3ccccc3)=NN2S(=O)(=O)c2ccc(C)cc2)c(OC)c1 (configuration not stated)
a: 103

q: Identify measured GFP response vs DMSO associated with CN(C(=O)c1cccnc1)c1nc(-c2ccccc2)cs1
a: 106

q: Identify measured GFP response vs DMSO associated with CS(=O)(=O)N1N=C(c2ccco2)CC1c1ccc(Cl)cc1 (configuration not stated)
a: 104

Next:
q: Identify measured GFP response vs DMSO associated with O=C(NCCO)c1c(O)c2cccc3c2n(c1=O)CC3
a: 97.8

q: Identify measured GFP response vs DMSO associated with COc1ccc(Cl)cc1C(Nc1cccnc1)c1ccc2cccnc2c1O (configuration not stated)
a: 116

q: Identify measured GFP response vs DMSO associated with CCN(CC)C(=O)c1ccc2c3c(cccc13)C(=O)N(CCc1ccc(OC)c(OC)c1)C2=O
a: 99.5

q: Identify measured GFP response vs DMSO associated with Cc1nc(SC2CC(=O)N(c3ccccc3)C2=O)nc2c1CCCC2 (configuration not stated)
a: 96.2

q: Identify measured GFP response vs DMSO associated with COc1ccc(S(=O)(=O)N2CCC(O)(c3ccc(Cl)cc3)CC2)cc1
a: 105

====

- test_description: LAP4-GFP expression modulators in yeast, confirmation, cell-based, cherry picks, flow cytometry, mother/daughter gates (AID 2271);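 note: ratio of sample to DMSO plate mean so 100% equals DMSO level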
- measurement_conditions: S. cerevisiae LAP4-GFP strain, 3 h, at 10 µM, stronger effect = higher value, 100 means same as DMSO control
reported_endpoint: GFP response relative to DMSO (%)
Give just the numeric value; % need not be written.

Examples from the recorded data:
q: Identify measured GFP response relative to DMSO associated with Cc1ccc(/C=C2/C(=O)ON=C2c2ccccc2)o1
a: 250

q: Identify measured GFP response relative to DMSO associated with Cc1ccc(/C=c2\sc3nc(-c4cccs4)nn3c2=O)o1
a: 128

q: Identify measured GFP response relative to DMSO associated with Nc1ccc(C(=O)N/N=C/c2ccccc2)cc1
a: 102

q: Identify measured GFP response relative to DMSO associated with CCOC(=O)c1sc(NC(=O)CN2C(=O)c3cccc4cccc(c34)C2=O)nc1C
a: 87.6

q: Identify measured GFP response relative to DMSO associated with CC[n+]1c(/C=C/c2ccc(N(C)C)cc2)ccc2ccccc21
a: 105

# ---- query molecule ----
q: Identify measured GFP response relative to DMSO associated with c1ccc(-c2cccc(-c3ccccn3)n2)nc1
a: 258

====

- test_description: yeast TOR pathway RPL19A-GFP modulators, primary screen, cell-based, S. cerevisiae, multiplex flow cytometry (AID 1862);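 note: lower values mimic rapamycin by blocking the RPL19A rise seen in DMSO cells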
- measurement_conditions: S. cerevisiae RPL19A-GFP strain, flow cytometry fluorescence, 3 h; at 10 µM; stronger effect = lower value
Results filed as inconclusive are left out.
reported_endpoint: percent of DMSO control GFP (%)
Give just the numeric value; % need not be written.

Examples from the recorded data:
q: Identify measured percent of DMSO control GFP associated with O=C(COc1ccccc1)N1CCN(c2ccccc2)CC1
a: 102

q: Identify measured percent of DMSO control GFP associated with COc1ccc(OC)c(-n2c(Cn3c(-c4ccccn4)nc4ccccc43)n[nH]c2=S)c1
a: 98.5

q: Identify measured percent of DMSO control GFP associated with Nc1c2c(nc3ccccc13)CCCC2
a: 89.5

q: Identify measured percent of DMSO control GFP associated with O=C(c1ccc(F)cc1)[C@@H]1[C@@H](C(=O)c2ccccc2)[C@@]2(C(=O)Nc3ccccc32)[C@H]2c3ccccc3C=CN12
a: 102

q: Identify measured percent of DMSO control GFP associated with Cc1ccc2c(c1)c1c3n2CCCNC3CCC1 (stereo unspecified)
a: 103

# ---- query molecule ----
q: Identify measured percent of DMSO control GFP associated with CC(C)CN1CC(C(=O)O)CC1=O (stereo unspecified)
a: 96.1

====

- test_description: RPL19A-GFP modulators, yeast TOR pathway, confirmation, cell-based, S. cerevisiae, flow cytometry, cherry picks, mother/daughter gates (AID 2270)
- measurement_conditions: S. cerevisiae RPL19A-GFP strain, 3 h, measured here: mother cell gate, at 10 µM, stronger effect = lower value, 100 = same GFP as DMSO wells
reported_endpoint: GFP response vs DMSO (%)
Give just the numeric value; % need not be written.

q: Identify measured GFP response vs DMSO associated with CSC(SC)=C(C#N)C(=O)c1ccccc1
a: 99.8

Next:
q: Identify measured GFP response vs DMSO associated with O=C(COC(=O)c1n[nH]c2ccccc12)c1cccc(Br)c1
a: 94.8

q: Identify measured GFP response vs DMSO associated with Cn1nnnc1N=N/C(=N/Nc1ccccc1)c1ccccc1
a: 97.3

q: Identify measured GFP response vs DMSO associated with COc1ccc(/C=N/Nc2nnc(C)n2N)cc1OC(C)=O
a: 99

q: Identify measured GFP response vs DMSO associated with COC(=O)c1ccccc1OCC(=O)NC1CCCCC1
a: 92.2

q: Identify measured GFP response vs DMSO associated with COCCNC(=O)c1ccc(Cl)c(Cl)c1
a: 95.3

q: Identify measured GFP response vs DMSO associated with O=[N+]([O-])c1ccc(Sc2ccc(Cl)c(Cl)c2)nc1
a: 96.9

q: Identify measured GFP response vs DMSO associated with C/C(CCC12CC3CC(CC(C3)C1)C2)=N\NC(N)=S
a: 90.7

q: Identify measured GFP response vs DMSO associated with Cc1cc(C)nc(S/C=C/C(=O)c2ccccc2F)n1
a: 102

q: Identify measured GFP response vs DMSO associated with O=[N+]([O-])c1ccc(Cl)cc1Sc1ccccn1
a: 104

q: Identify measured GFP response vs DMSO associated with Cc1ccc(C(=O)Sc2cccccc2=O)cc1
a: 99

q: Identify measured GFP response vs DMSO associated with CCCc1[nH]nc2c1C(c1ccc(OCCN3CCOCC3)c(OCC)c1)C(C#N)=C(N)O2 (configuration not stated)
a: 98.9
